- method-notes: NCI Yeast Anticancer Drug Screen. Data for the rad14 strain (AID 159);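 note: 0% = growth of vehicle-treated control cultures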
- measurement-parameters: S. cerevisiae rad14 strain growth inhibition; at 3.7 µM; hits give high values
This is part of a sample that, as a whole, favours compounds with a hit. Of some 79,000 tested, about 15% had one in any assay.
outcome-measure: growth inhibition (%)
Numbers only, in %.

Below are worked cases with known answers.
O=C1C(Cl)=C(Cl)C(Cl)(Cl)C(Cl)C1(Cl)Cl (stereo unspecified)
25
Cc1cc(N=C2C=CC(=[N+](C)C)C=C2)c(N)cc1N
-19
COc1ccc(/C(C#N)=C/c2ccc(OC)c(OC)c2)cc1
-29
Cc1cc(O)c2c(c1)C(=O)C=C(Br)C2=O
64
CCN(CC)N=Nc1c(C(N)=O)n[nH]c1C
1

Task: Recorded growth inhibition of "COc1cc(CNc2ccc(C(C)C)cc2)cc(OC)c1OC" , please.
Output: -17
